Entry source: PubChem BioAssay (EPA / NIEHS)

# Protocol: ATG_ISRE_CIS: Attagene CIS-FACTORIAL HepG2 Assay for human Interferon Regulatory Factor 1 (IRF1) binding to an Interferon-Stimulated Response Element (ISRE) (AID 2282948)
# Measurement Conditions: HepG2 ISRE cis-reporter (Attagene), mRNA transcription readout; actives raise or lower the signal
Active and inactive are the calls of the source. How the source made its calls: active means hit-call score of the fitted dose curve at least 0.9, where 1 is the maximum; inactive means score below 0.9.
Give your call using only these classes: active, inactive

Entry Smiles	Answer Label
Cc1cccc(O)c1C	inactive
O=S(=O)(O)c1ccc(N=Nc2c(O)ccc3cc(S(=O)(=O)O)ccc23)cc1	inactive
COCc1nnc(-c2ccc[n+]([O-])c2)n1-c1c(Cl)c(Cl)cc2[nH]c(=O)c(=O)[nH]c12	inactive
c1ccc(C(O[C@@H]2CCCN(CCc3ccc4c(c3)OCO4)C2)c2ccccc2)cc1	inactive

Dear all, I need the recorded test outcome for `COc1cc2c(c(OC)c1OC)-c1ccc(OC)c(=O)cc1[C@@H](NC(C)=O)CC2` , thank you.
inactive

GET /call?item= `NCC(F)(F)C(F)(F)C(F)(F)C(F)(F)F` returns the recorded outcome of this test.
inactive

Short answer needed: outcome of this test for `OCCC(F)(F)C(F)(F)C(F)(F)C(F)(F)F` ?
inactive

I'd appreciate the recorded outcome for `CCCCN1C(=O)[C@@H]([C@H](O)C2CCCCC2)NC(=O)C12CCN(Cc1ccc(Oc3ccc(C(=O)O)cc3)cc1)CC2` from this test.
active

So what was the verdict on `CCCCCCOC(=O)CC(CC(=O)OCCCCCC)(OC(=O)CCC)C(=O)OCCCCCC` in this test?
inactive

// return assay outcome for `S=P(N1CC1)(N1CC1)N1CC1`
inactive

Per the records of this test, what outcome belongs to `CCOC(N)=O` ?
inactive

----------
# Read-out: Interleukin 6 (IL6), IL6 (gene 3569)
# Protocol: LTEA_HepaRG_IL6: Life Technologies and Expression Analysis (LTEA) Assay for Interleukin 6 (IL6) using HepaRG (AID 2283509)
# Measurement Conditions: mRNA level, 48 h; actives raise or lower the signal
The source made the active and inactive calls. Rule for the calls: active = hit-call score of the fitted dose curve at least 0.9, where 1 is the maximum; inactive = score below 0.9.
Use one of these outcomes when replying: 1.0 (active), 0.0 (inactive)

Entry Smiles	Answer Label
O=C(O)[C@H](O)[C@@H](O)C(=O)O	0.0
OC[C@H]1O[C@@H]2O[C@H]3[C@H](O)[C@@H](O)[C@@H](O[C@H]4[C@H](O)[C@@H](O)[C@@H](O[C@H]5[C@H](O)[C@@H](O)[C@@H](O[C@H]6[C@H](O)[C@@H](O)[C@@H](O[C@H]7[C@H](O)[C@@H](O)[C@@H](O[C@H]1[C@H](O)[C@H]2O)O[C@@H]7CO)O[C@@H]6CO)O[C@@H]5CO)O[C@@H]4CO)O[C@@H]3CO	0.0
CCN(CC)C(=S)SSC(=S)N(CC)CC	0.0
O=C(NO)C1(NS(=O)(=O)c2ccc(Oc3ccc(F)cc3)cc2)CCOCC1	0.0
O=C1CN(N=Cc2ccc([N+](=O)[O-])o2)C(=O)N1	0.0

Now turn to the next compound.
Give the logged outcome of this assay for the following compound: `COc1cc(C(C)C)c2c(c1)S(=O)(=O)N(COc1cc(=O)n3cccc(OCCN4CCCCC4)c3n1)C2=O`
1.0

----------
# Read-out: Thyroid Hormone Responsive (THRSP), THRSP (gene 7069)
# Protocol: LTEA_HepaRG_THRSP: Life Technologies and Expression Analysis (LTEA) Assay for Thyroid Hormone Responsive (THRSP) using HepaRG (AID 2283536)
# Measurement Conditions: mRNA level, 48 h; actives raise or lower the signal
Active and inactive are the calls of the source. Rule for the calls: active = hit-call score of the fitted dose curve at least 0.9, where 1 is the maximum; inactive = score below 0.9.
Permitted responses: active, inactive

>>> print(df.to_string())
                                   compound  answer_label
0                    O=C(O)c1cccc(C(=O)O)c1      inactive
1  CC(C)CCCCCCOC(=O)C1CCCCC1C(=O)OCCCCCCC(C)C (stereo not given)      inactive

Hi, do you know how CC(C)CC(C)O (stereo not given) came out in this test?
inactive

Hey, what did the test say about `c1ccc2c(c1)-c1cccc3c1c-2cc1ccccc13` ?
active

Check the results log: what was the call for `NC(=O)NN=Cc1ccc([N+](=O)[O-])o1` ?
inactive
